- TARGET OR TEST SYSTEM: plasma purified human complement protein C3 (human) (UniProt P01024)
- Sequence (P01024 23-667, chain 1 of 2): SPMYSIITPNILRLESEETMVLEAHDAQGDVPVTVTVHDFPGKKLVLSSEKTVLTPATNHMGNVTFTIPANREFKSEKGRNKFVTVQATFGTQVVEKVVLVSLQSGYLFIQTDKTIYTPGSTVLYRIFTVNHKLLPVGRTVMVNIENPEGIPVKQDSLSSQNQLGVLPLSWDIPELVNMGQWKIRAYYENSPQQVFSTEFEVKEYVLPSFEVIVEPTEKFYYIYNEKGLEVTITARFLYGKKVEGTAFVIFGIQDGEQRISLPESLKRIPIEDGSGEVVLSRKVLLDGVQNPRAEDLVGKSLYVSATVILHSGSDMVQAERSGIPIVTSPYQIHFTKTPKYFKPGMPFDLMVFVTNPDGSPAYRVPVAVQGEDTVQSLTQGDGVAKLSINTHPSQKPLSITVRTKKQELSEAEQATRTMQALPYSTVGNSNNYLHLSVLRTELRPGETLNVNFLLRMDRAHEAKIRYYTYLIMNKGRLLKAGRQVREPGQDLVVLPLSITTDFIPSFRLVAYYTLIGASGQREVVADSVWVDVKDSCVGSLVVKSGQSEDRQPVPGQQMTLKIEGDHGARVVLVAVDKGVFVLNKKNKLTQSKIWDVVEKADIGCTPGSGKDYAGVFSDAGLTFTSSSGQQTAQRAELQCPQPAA
- Sequence (P01024 672-1663, chain 2 of 2): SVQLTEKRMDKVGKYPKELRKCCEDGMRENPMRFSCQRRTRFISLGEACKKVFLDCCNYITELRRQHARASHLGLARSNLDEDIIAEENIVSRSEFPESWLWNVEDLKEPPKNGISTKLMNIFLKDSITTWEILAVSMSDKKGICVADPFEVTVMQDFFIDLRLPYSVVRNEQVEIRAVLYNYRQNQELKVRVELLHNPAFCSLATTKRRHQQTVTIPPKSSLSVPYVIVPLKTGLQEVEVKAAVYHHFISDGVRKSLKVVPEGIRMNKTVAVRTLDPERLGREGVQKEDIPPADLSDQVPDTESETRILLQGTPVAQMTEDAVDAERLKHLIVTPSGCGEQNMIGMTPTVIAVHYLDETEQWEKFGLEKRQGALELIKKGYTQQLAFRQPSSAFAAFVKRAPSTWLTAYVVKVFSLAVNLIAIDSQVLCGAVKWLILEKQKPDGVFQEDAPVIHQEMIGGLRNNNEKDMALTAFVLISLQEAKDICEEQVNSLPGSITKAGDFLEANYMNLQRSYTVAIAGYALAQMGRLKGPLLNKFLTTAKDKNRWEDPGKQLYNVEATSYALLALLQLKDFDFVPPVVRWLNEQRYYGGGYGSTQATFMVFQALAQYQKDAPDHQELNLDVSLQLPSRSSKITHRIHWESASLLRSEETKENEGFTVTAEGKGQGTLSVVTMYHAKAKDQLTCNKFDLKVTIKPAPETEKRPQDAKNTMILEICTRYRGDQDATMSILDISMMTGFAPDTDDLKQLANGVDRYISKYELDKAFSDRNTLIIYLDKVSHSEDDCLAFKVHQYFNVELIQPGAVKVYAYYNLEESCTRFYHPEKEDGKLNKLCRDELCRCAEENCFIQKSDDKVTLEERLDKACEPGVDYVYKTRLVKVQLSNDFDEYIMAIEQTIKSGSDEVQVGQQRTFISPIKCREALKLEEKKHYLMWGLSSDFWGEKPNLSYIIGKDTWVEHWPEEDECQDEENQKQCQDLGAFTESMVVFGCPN
- MEASUREMENT PROTOCOL: cell-based or functional assay
MEASUREMENT TYPE: EC50 of hC3 cleavage (µM)
# output: bare number, implied unit µM

Example binders with recorded EC50 of hC3 cleavage:
MTSP-1 H40R/I41H/F97D/F99L/C122S/Q175M/Q192G/D217S (enzyme) VVGGTDADEGEWPWQVSLHALGQGRHCGASLISPNWLVSAAHCYIDDRGFRYSDPTQWTAFLGLHDQSQRSAPGVQERRLKRIISHPFFNDDTLDYDIALLELEKPAEYSSMVRPISLPDASHVFPAGKAIWVTGWGHTQYGGTGALILQKGEIRVINQTTCENLLPQMITPRMMCVGFLSGGVDSCGGDSGGPLSSVEADGRIFQAGVVSWGSGCAQRNKPGVYTRLPLFRDWIKENTGV : 0.0244
MTSP-1 I41R/ins97aE/F97T/T98G/F99L/C122S/G151N/Q175T/Q192E (enzyme) VVGGTDADEGEWPWQVSLHALGQGHRCGASLISPNWLVSAAHCYIDDRGFRYSDPTQWTAFLGLHDQSQRSAPGVQERRLKRIISHPFFNDTEGLDYDIALLELEKPAEYSSMVRPISLPDASHVFPAGKAIWVTGWGHTQYGGTNALILQKGEIRVINQTTCENLLPQTITPRMMCVGFLSGGVDSCEGDSGGPLSSVEADGRIFQAGVVSWGDGCAQRNKPGVYTRLPLFRDWIKENTGV : 1.41
MTSP-1 Q38H/I41A/D60bT/F60eR/F97T/ins97aE/T98G/F99L/C122S/Q175L/Q192V (enzyme) VVGGTDADEGEWPWQVSLHALGHGHACGASLISPNWLVSAAHCYIDTRGRRYSDPTQWTAFLGLHDQSQRSAPGVQERRLKRIISHPFFNDTEGLDYDIALLELEKPAEYSSMVRPISLPDASHVFPAGKAIWVTGWGHTQYGGTGALILQKGEIRVINQTTCENLLPQLITPRMMCVGFLSGGVDSCVGDSGGPLSSVEADGRIFQAGVVSWGDGCAQRNKPGVYTRLPLFRDWIKENTGV : 0.00654
MTSP-1 Q38H/I41S/D60bT/F60eS/Y60gW/D96K/ins97aV/T98P/F99L/C122S/G151H/Q175L/Q192D (enzyme) VVGGTDADEGEWPWQVSLHALGHGHSCGASLISPNWLVSAAHCYIDTRGSRWSDPTQWTAFLGLHDQSQRSAPGVQERRLKRIISHPFFNKFVPLDYDIALLELEKPAEYSSMVRPISLPDASHVFPAGKAIWVTGWGHTQYGGTHALILQKGEIRVINQTTCENLLPQLITPRMMCVGFLSGGVDSCDGDSGGPLSSVEADGRIFQAGVVSWGDGCAQRNKPGVYTRLPLFRDWIKENTGV : 0.012

Please fill in: EC50 of hC3 cleavage reported for MTSP-1 H40R/I41H/F97D/F99L/C122S/G151N/Q192H (enzyme) VVGGTDADEGEWPWQVSLHALGQGRHCGASLISPNWLVSAAHCYIDDRGFRYSDPTQWTAFLGLHDQSQRSAPGVQERRLKRIISHPFFNDDTLDYDIALLELEKPAEYSSMVRPISLPDASHVFPAGKAIWVTGWGHTQYGGTNALILQKGEIRVINQTTCENLLPQQITPRMMCVGFLSGGVDSCHGDSGGPLSSVEADGRIFQAGVVSWGDGCAQRNKPGVYTRLPLFRDWIKENTGV = 0.179
